Attribute: pIC50
Target: Recombinant human caspase-10 (Homo sapiens)
Sequence (Q92851 220-521): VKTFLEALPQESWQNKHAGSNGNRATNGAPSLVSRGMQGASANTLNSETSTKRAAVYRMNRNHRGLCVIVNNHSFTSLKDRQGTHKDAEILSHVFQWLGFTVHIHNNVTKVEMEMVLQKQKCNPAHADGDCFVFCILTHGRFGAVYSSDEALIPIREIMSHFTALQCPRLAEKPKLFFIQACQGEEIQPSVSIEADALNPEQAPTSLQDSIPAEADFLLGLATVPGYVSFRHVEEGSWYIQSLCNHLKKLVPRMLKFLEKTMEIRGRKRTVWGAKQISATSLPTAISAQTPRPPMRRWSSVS
Assay: delayed-time fluorescence caspase inhibition test, caspase-10
pIC50: −log10 of the molar value.
Reported property: pIC50

INSERT INTO assay_data (substance_smiles, reported_property, observed_value) VALUES
  ('O=S(=O)(NCC1(Cc2ccc(CCO)cc2)CCCC1)c1ccc2ccccc2c1', 'pIC50', 6.55),
  ('O=S(=O)(NCC1(Cc2ccc(CCOCC3CC3)cc2)CCC1)c1ccc(Cl)cc1Cl', 'pIC50', 6.66),
  ('O=S(=O)(NCC1(Cc2ccc(CCO)cc2)CCCC1)c1cccc(Cl)c1', 'pIC50', 5.46),
  ('O=S(=O)(NCC1(Cc2ccc(CCO)cc2)CCCC1)c1cccc(C(F)(F)F)c1', 'pIC50', 5.50),
  ('O=S(=O)(NCC1(Cc2ccc(CCO)cc2)CCCC1)c1ccc(C(F)(F)F)cc1', 'pIC50', 5.50),
  ('COc1ccc(S(=O)(=O)NCC2(Cc3ccc(CCOCC4CC4)cc3)CCC2)cc1', 'pIC50', 5.45),
  ('O=S(=O)(NCC1(Cc2ccc(CCS(=O)(=O)C3CCCC3)cc2)CCC1)c1ccc(Cl)cc1Cl', 'pIC50', 6.15),
  ('CS(=O)(=O)c1ccc(S(=O)(=O)NCC2(Cc3ccc(CCO)cc3)CCCC2)cc1', 'pIC50', 5.01),
  ('CSCCc1ccc(CC2(CNS(=O)(=O)c3ccc(Cl)cc3Cl)CCC2)cc1', 'pIC50', 6.67),
  ('O=S(=O)(NCC1(Cc2ccc(CCO)cc2)CCC1)c1ccc(Cl)cc1', 'pIC50', 6.00),
  ('CC(=O)c1ccc(S(=O)(=O)NCC2(Cc3ccc(CCO)cc3)CCCC2)cc1', 'pIC50', 5.54),
  ('O=S(=O)(NCC1(Cc2ccc(CCO)cc2)CCCC1)c1cc(F)c(F)c(F)c1', 'pIC50', 5.75),
  ('O=S(=O)(NCC1(Cc2ccc(CCO)cc2)CCCC1)c1c(F)c(F)c(F)c(F)c1F', 'pIC50', 6.84),
  ('Cc1ccc(S(=O)(=O)NCC2(Cc3ccc(CCO)cc3)CCC2)cc1', 'pIC50', 5.52);

----------
Attribute: IC50
biological target: Recombinant human caspase-3 (Homo sapiens, UniProt P42574); assay: delayed-time fluorescence caspase inhibition test, caspase-3
Sequence (P42574 29-277): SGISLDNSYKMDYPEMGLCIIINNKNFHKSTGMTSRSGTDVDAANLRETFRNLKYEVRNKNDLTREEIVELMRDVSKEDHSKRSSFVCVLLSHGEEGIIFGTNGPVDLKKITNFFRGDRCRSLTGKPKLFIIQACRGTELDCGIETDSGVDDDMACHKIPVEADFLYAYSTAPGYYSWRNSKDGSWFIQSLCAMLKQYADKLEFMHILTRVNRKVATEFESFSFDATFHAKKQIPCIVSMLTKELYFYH
Reported property: IC50

INSERT INTO measurements (molecule, observed_value) VALUES
  ('COc1ccc(S(=O)(=O)NCC2(Cc3ccc(CCO)cc3)CCCC2)cc1 [Example 47]', '> 200 µM'),
  ('CSc1ccc(S(=O)(=O)NCC2(Cc3ccc(CCO)cc3)CCCC2)cc1 [Example 43]', '> 200 µM'),
  ('CSCCc1ccc(CC2(CNS(=O)(=O)c3ccc(Cl)cc3Cl)CCC2)cc1 [Example 17]', '> 200 µM'),
  ('O=S(=O)(NCC1(Cc2ccc(CCO)cc2)CCCC1)c1cc(F)c(F)c(F)c1 [Example 61]', '> 200 µM'),
  ('O=S(=O)(NCC1(Cc2ccc(CCS(=O)(=O)C3CCCC3)cc2)CCC1)c1ccc(Cl)cc1Cl [Example 22]', '> 200 µM');

----------
Target: Recombinant human caspase-2 (Homo sapiens)
Sequence (P42575 1-452): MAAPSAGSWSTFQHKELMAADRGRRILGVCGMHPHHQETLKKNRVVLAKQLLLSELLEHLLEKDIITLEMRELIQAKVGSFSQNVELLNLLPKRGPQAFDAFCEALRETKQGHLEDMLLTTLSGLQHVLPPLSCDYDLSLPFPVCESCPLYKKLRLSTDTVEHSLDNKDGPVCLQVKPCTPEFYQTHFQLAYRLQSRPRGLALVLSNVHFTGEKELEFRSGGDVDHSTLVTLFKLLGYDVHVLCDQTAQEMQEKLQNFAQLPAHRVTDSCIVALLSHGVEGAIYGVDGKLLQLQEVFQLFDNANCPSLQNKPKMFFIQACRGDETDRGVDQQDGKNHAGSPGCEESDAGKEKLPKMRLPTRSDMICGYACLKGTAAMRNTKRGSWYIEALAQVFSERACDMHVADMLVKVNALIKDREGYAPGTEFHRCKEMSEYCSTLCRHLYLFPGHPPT
Assay: delayed-time fluorescence caspase inhibition test, caspase-2
Settings: read-out: Inhibition IC50 Caspase-2; tested 100 nM to 200 μM, 1% DMSO, 3 h 30 min at room temperature
Reported property: IC50

INSERT INTO results (substance_smiles, tested_on, reported_property, observed_value) VALUES
  ('O=S(=O)(NCC1(Cc2ccc(CCO)cc2)CCCC1)c1ccc(Cl)cc1', 'Recombinant human caspase-2 (Homo sapiens)', 'IC50', '> 200 µM'),
  ('O=S(=O)(NCC1(Cc2ccc(CCO)cc2)CCC1)c1c(F)c(F)c(F)c(F)c1F', 'Recombinant human caspase-2 (Homo sapiens)', 'IC50', '> 200 µM');

----------
Attribute: IC50
target: Recombinant human caspase-3 (Homo sapiens, UniProt P42574); assay: delayed-time fluorescence caspase inhibition test, caspase-3; conditions: read-out: Inhibition IC50 Caspase-3; tested 100 nM to 200 μM, 1% DMSO, 3 h 30 min at room temperature
Reported property: IC50

INSERT INTO assay_data (molecule, observed_value) VALUES
  ('O=S(=O)(NCC1(Cc2ccc(CCO)cc2)CCCC1)c1ccc(Cl)cc1 [Example 33]', '> 200 µM'),
  ('O=S(=O)(NCC1(Cc2ccc(CCO)cc2)CCC1)c1c(F)c(F)c(F)c(F)c1F [Example 66]', '> 200 µM');

----------
target: Recombinant human caspase-10 (Homo sapiens, UniProt Q92851); test: delayed-time fluorescence caspase inhibition test, caspase-10
pIC50: −log10 of the molar value.
Reported property: pIC50

INSERT INTO results (substance_smiles, reported_property, observed_value) VALUES
  ('O=S(=O)(NCC1(Cc2ccc(CCSC3CCCC3)cc2)CCC1)c1ccc(Cl)cc1Cl', 'pIC50', 6.67),
  ('O=[N+]([O-])c1ccc(S(=O)(=O)NCC2(Cc3ccc(CCO)cc3)CCCC2)cc1', 'pIC50', 5.43),
  ('Cc1cccc(S(=O)(=O)NCC2(Cc3ccc(CCO)cc3)CCCC2)c1', 'pIC50', 5.18),
  ('Cc1ccc(S(=O)(=O)NCC2(Cc3ccc(CCO)cc3)CCCC2)cc1', 'pIC50', 5.39),
  ('CS(=O)(=O)CCc1ccc(CC2(CNS(=O)(=O)c3ccc(Cl)cc3Cl)CCC2)cc1', 'pIC50', 6.63),
  ('O=S(=O)(NCC1(Cc2ccc(CCO)cc2)CCCC1)c1cc(Cl)cc(Cl)c1', 'pIC50', 5.21),
  ('O=S(=O)(NCC1(Cc2ccc(CCO)cc2)CCCC1)c1ccc(Cl)c(Cl)c1', 'pIC50', 6.53),
  ('O=S(=O)(NCC1(Cc2ccc(CCO)cc2)CCCC1)c1ccc(Cl)cc1Cl', 'pIC50', 6.75);

----------
Attribute: IC50
Target: Recombinant human caspase-10 (Homo sapiens, UniProt Q92851)
Sequence (Q92851 220-521): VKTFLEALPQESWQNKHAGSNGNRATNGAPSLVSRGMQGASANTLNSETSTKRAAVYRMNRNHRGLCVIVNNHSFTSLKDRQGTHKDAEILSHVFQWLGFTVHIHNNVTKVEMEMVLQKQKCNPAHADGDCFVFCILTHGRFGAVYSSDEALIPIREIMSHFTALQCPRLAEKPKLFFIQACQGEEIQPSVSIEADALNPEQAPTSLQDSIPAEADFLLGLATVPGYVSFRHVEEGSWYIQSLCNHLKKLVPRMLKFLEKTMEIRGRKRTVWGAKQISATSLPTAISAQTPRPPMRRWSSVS
Assay: delayed-time fluorescence caspase inhibition test, caspase-10
Settings: read-out: Inhibition IC50 Caspase-10; tested 100 nM to 200 μM, 1% DMSO, 3 h 30 min at room temperature
Reported property: IC50 (nM)

INSERT INTO measurements (compound, tested_on, quantity_unit, observed_value) VALUES
  ('O=S(=O)(NCC1(Cc2ccc(CCO)cc2)CCC1)c1c(F)c(F)c(F)c(F)c1F [Example 66]', 'Recombinant human caspase-10 (Homo sapiens, UniProt Q92851)', 'nM', 393),
  ('O=S(=O)(NCC1(Cc2ccc(CCO)cc2)CCCC1)c1ccc(Cl)cc1 [Example 33]', 'Recombinant human caspase-10 (Homo sapiens, UniProt Q92851)', 'nM', 1700);
